Test name: Dye solubility in deionised water
Format: physicochemical
Measurement setup: deionised water; stirred 1 hour at 50° C., cooled to 20° C.; Table 5
Quick reference for Solubility among some molecules
Reported metric: Solubility (g per 100 ml)

Molecule	Reported metric	Qualifier sign	Result number
O=S(=O)(O)CCNc1ccc2cc(S(=O)(=O)O)c(N=Nc3ccc(N=Nc4ccc(CS(=O)(=O)O)cc4)c4ccc(S(=O)(=O)O)cc34)c(O)c2c1	Solubility	>	20
O=S(=O)(O)CCNc1ccc2cc(S(=O)(=O)O)c(N=Nc3ccc(N=Nc4ccc(S(=O)(=O)O)cc4)c4ccc(S(=O)(=O)O)cc34)c(O)c2c1 [Compound 5]	Solubility	=	16
O=C(O)CCNc1ccc2cc(S(=O)(=O)O)c(N=Nc3ccc(N=Nc4cccc(C(=O)O)c4)c4ccc(S(=O)(=O)O)cc34)c(O)c2c1 [Compound 26, reference compound]	Solubility	=	17
O=S(=O)(O)CCNc1ccc2cc(S(=O)(=O)O)c(N=Nc3ccc(N=Nc4ccc(S(=O)(=O)O)cc4)c4ccc(S(=O)(=O)O)cc34)c(O)c2c1 [Compound 3]	Solubility	>	20
O=C(O)c1cc(N=Nc2ccc(N=Nc3c(S(=O)(=O)O)cc4ccc(NCCS(=O)(=O)O)cc4c3O)c3cc(S(=O)(=O)O)ccc23)cc(C(=O)O)c1	Solubility	>	20
Nc1ccc2cc(S(=O)(=O)O)c(N=Nc3ccc(N=Nc4cc(C(=O)O)cc(C(=O)O)c4)c4ccc(S(=O)(=O)O)cc34)c(O)c2c1 [Compound 24, reference compound]	Solubility	=	12

====

Test name: Color co-ordinates (L*a*b*) of printed samples
Format: physicochemical
Measurement setup: state of the art dyes, Table 7
Use 1 (yes) when the recorded L*a*b*-value: b* is no lower than -10; use 0 (no) when it is lower.

Compound	Label class
O=C(O)CCNc1ccc2cc(S(=O)(=O)O)c(N=Nc3ccc(N=Nc4cccc(C(=O)O)c4)c4ccc(S(=O)(=O)O)cc34)c(O)c2c1 [Compound 26, reference compound]	0 (no)
Nc1ccc2cc(S(=O)(=O)O)c(N=Nc3ccc(N=Nc4cc(C(=O)O)cc(C(=O)O)c4)c4cc(S(=O)(=O)O)ccc34)c(O)c2c1 [Compound 25, reference compound]	1 (yes)
Nc1ccc2cc(S(=O)(=O)O)c(N=Nc3ccc(N=Nc4cc(C(=O)O)cc(C(=O)O)c4)c4ccc(S(=O)(=O)O)cc34)c(O)c2c1 [Compound 24, reference compound]	1 (yes)
Nc1ccc2cc(S(=O)(=O)O)cc(O)c2c1N=Nc1ccc(N=Nc2ccc(O)c(C(=O)O)c2)c2ccc(S(=O)(=O)O)cc12 [Compound 28, reference compound]	1 (yes)
O=C(O)CCNc1ccc2cc(S(=O)(=O)O)c(N=Nc3ccc(N=Nc4ccc(C(=O)O)cc4)c4ccc(S(=O)(=O)O)cc34)c(O)c2c1 [Compound 27, reference compound]	0 (no)

====

Test name: Color co-ordinates (L*a*b*) of printed samples
Type: physicochemical
Measurement setup: Table 6
Reported metric: L*a*b*-value: b*

Structure string	Reported metric	Result number
O=S(=O)(O)CCNc1ccc2cc(S(=O)(=O)O)c(N=Nc3ccc(N=Nc4cc(Cl)c(S(=O)(=O)O)cc4Cl)c4ccc(S(=O)(=O)O)cc34)c(O)c2c1	L*a*b*-value: b*	0.3
O=C(O)Cc1ccc(N=Nc2ccc(N=Nc3c(S(=O)(=O)O)cc4ccc(NCCS(=O)(=O)O)cc4c3O)c3cc(S(=O)(=O)O)ccc23)cc1	L*a*b*-value: b*	-5.9
O=S(=O)(O)CCNc1ccc2cc(S(=O)(=O)O)c(N=Nc3ccc(N=Nc4ccc5c(S(=O)(=O)O)cc(S(=O)(=O)O)cc5c4)c4ccc(S(=O)(=O)O)cc34)c(O)c2c1	L*a*b*-value: b*	-3.6
O=P(O)(O)Cc1ccc(N=Nc2ccc(N=Nc3c(S(=O)(=O)O)cc4ccc(NCCS(=O)(=O)O)cc4c3O)c3cc(S(=O)(=O)O)ccc23)cc1	L*a*b*-value: b*	0.1
O=S(=O)(O)CCNc1ccc2cc(S(=O)(=O)O)c(N=Nc3ccc(N=Nc4cccc(S(=O)(=O)O)c4)c4cc(S(=O)(=O)O)ccc34)c(O)c2c1	L*a*b*-value: b*	-6.4
